Where these numbers come from: patent EP2170885B1

What follows is a record of log10 of IC50 for MMP9 (Homo sapiens).
Note: values are log10 of IC50 expressed in µM.

Kindly note the recorded log10 of IC50 for Cc1ccc(S(=O)(=O)N2CCc3c([nH]c4ccccc34)C2C(=O)O)cc1 (racemic) , which is 2.15

Item: O=C(NO)C1c2[nH]c3ccccc3c2CCN1S(=O)(=O)c1ccc(-c2ccccc2)cc1 (racemic) | log10 of IC50: -1.82

CCCCOc1ccc(S(=O)(=O)N2CCc3c([nH]c4ccccc34)C2C(=O)O)cc1 (racemic) yielded log10 of IC50 of 1.38

// recorded log10 of IC50 for O=C(O)C1c2[nH]c3ccccc3c2CCN1S(=O)(=O)c1ccc(Oc2ccc(F)cc2)cc1 (racemic) : 0.60

O=C(O)C1c2[nH]c3ccccc3c2CCN1S(=O)(=O)c1ccc(-c2ccccc2)cc1 (racemic) yielded log10 of IC50 of 0.88
